All values here come from paper PMC5540273.

system: PRKG2; conditions: concentration: 1 μM, replicates: in singlicate; n = 1;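 further: KINOMEscan kinase panel screen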
endpoint_name: %Inh (%)
Give the quantity in %, number only.

Ask: Quote %Inh reported for Cc1cc(N2Cc3ccccc3C2)nc(Nc2ccc(S(=O)(=O)N3CCOCC3)cc2)n1.Cl please.
Reply: 0

Ask: Quote %Inh reported for O=C(Nc1ccccc1)Nc1cccc(Oc2ccc3nccn3n2)c1 please.
Reply: 0

Ask: Quote %Inh reported for Cl.c1ccc(-c2n[nH]cc2-c2ccnc(-c3ccc(CN4CCOCC4)cc3)c2)nc1 please.
Reply: 16

Ask: Quote %Inh reported for Cc1ccccc1-n1cnc2c(N)ncnc21 please.
Reply: 0

Ask: Quote %Inh reported for COc1ccccc1CNC(=O)c1cc(C(=O)c2ccccc2C)c[nH]1 please.
Reply: 2

====

system: TRPM6; conditions: concentration: 1 μM, replicates: in singlicate; n = 1
What %Inh was measured for each of the following?
Give the quantity in %, number only.

Ask: Quote %Inh reported for CCn1c(-c2cccnc2O)nc2cnccc21 [SB-736715] please.
Reply: 0

Ask: Quote %Inh reported for Cl.NC(=O)c1cccc(Nc2nccc(Nc3ccc(Oc4cccc(Cl)c4)c(Cl)c3)n2)c1 [GW659008] please.
Reply: 13

Ask: Quote %Inh reported for O=C(O)COc1ncnc2cc(-c3ccc4[nH]ncc4c3)sc12 please.
Reply: 6

Ask: Quote %Inh reported for Cc1nnc(-c2ccc3occ(-c4ccc(S(C)=O)cc4)c3c2)[nH]1 (stereo not shown) please.
Reply: 1

Ask: Quote %Inh reported for Cc1ccc(-c2cc(-c3c[nH]nc3-c3ccccn3)ccn2)cc1 [GW684088] please.
Reply: 0

Ask: Quote %Inh reported for Cc1c(O)cccc1Nc1ccnc2ccc(C(F)(F)F)cc12.Cl [GW466413] please.
Reply: 0

Ask: Quote %Inh reported for Cc1cccc(-c2nc(Nc3ccncc3)c3ccccc3n2)n1 [GW855857] please.
Reply: 0

Ask: Quote %Inh reported for COc1cccc(NC(=O)NC2CCN(c3ccnc(Nc4ccc(F)cc4)n3)C2)c1 (stereo not shown) [GSK1379721] please.
Reply: 26

Ask: Quote %Inh reported for CC1=C(C(=O)Nc2cc3cn[nH]c3cc2F)C(c2ccc(C(F)(F)F)cc2)CC(=O)N1 (stereo not shown) [GSK429286] please.
Reply: 0

Ask: Quote %Inh reported for Cc1csc(-c2nc(Nc3ccncc3)c3ccccc3n2)n1 [GW869640] please.
Reply: 44

====

tested on: PRP4; conditions: concentration: 1 μM, replicates: in singlicate; n = 1
So basically: %Inh at 10% or higher? That is yes. Lower than 10%? That is no.

Ask: Does O=C(Nc1ccccc1)Nc1cccc(Oc2ccc3nccn3n2)c1 have a reported %Inh of at least 10%?
Reply: yes

Ask: Does Cc1cc(N2Cc3ccccc3C2)nc(Nc2ccc(S(=O)(=O)N3CCOCC3)cc2)n1.Cl have a reported %Inh of at least 10%?
Reply: yes

Ask: Does Fc1cc(Cl)ccc1Nc1ccnc2cc(I)ccc12 have a reported %Inh of at least 10%?
Reply: yes

Ask: Does CC1=C(C(=O)Nc2cc3cn[nH]c3cc2F)C(c2ccc(C(F)(F)F)cc2)CC(=O)N1 (stereo not drawn) have a reported %Inh of at least 10%?
Reply: no

Ask: Does Fc1cccc(COc2nnc(-c3ccc4c(c3)CCO4)o2)c1 have a reported %Inh of at least 10%?
Reply: no

Ask: Does COc1ccccc1-c1ccc2c(NC(=O)C3CC3)n[nH]c2n1 have a reported %Inh of at least 10%?
Reply: yes

Ask: Does O=c1cc(N2CCOCC2)nc2n(Cc3cccc(Cl)c3Cl)ccn12 have a reported %Inh of at least 10%?
Reply: no

Ask: Does Cc1cccc(-c2nc(Nc3ccc4[nH]ncc4c3)c3ccccc3n2)n1 have a reported %Inh of at least 10%?
Reply: yes

Ask: Does Cn1cncc1-c1ccc2ncnc(Nc3ccc(OCc4ccccc4)cc3)c2c1 have a reported %Inh of at least 10%?
Reply: no

====

system: ZAK; settings: concentration: 1 μM, replicates: in singlicate; n = 1
# note: exactly 8% is not below, so it is f; use t for %Inh strictly under it

Ask: # check: %Inh < 8% for COc1cc(Nc2nccc(N3CCC(NC(=O)Nc4cc(C)ccc4C)C3)n2)cc(OC)c1OC (stereo not drawn) [GSK1379762]
Reply: t

Ask: # check: %Inh < 8% for CCn1c(-c2cccnc2O)nc2cnccc21 [SB-736715]
Reply: t

Ask: # check: %Inh < 8% for Cc1ccc(NC(=O)Nc2cccc(Cl)c2)cc1-c1ccc(C(=O)Nc2ccncc2)cc1 [GSK1398468]
Reply: f

Ask: # check: %Inh < 8% for COc1cccc(NC(=O)NC2CCN(c3ccnc(Nc4ccc(F)cc4)n3)C2)c1 (stereo not drawn) [GSK1379721]
Reply: f

Ask: # check: %Inh < 8% for Cc1cccc(-c2nc(Nc3ccncc3)c3ccccc3n2)n1 [GW855857]
Reply: t

Ask: # check: %Inh < 8% for Cc1ccc(NC(=O)Nc2cc(C(C)(C)C)nn2-c2ccccc2)cc1 [GSK1014915]
Reply: f

Ask: # check: %Inh < 8% for COc1ccccc1CNC(=O)c1cc(C(=O)c2ccccc2C)c[nH]1 [GSK364507]
Reply: f

Ask: # check: %Inh < 8% for Fc1cc(Cl)ccc1Nc1ccnc2cc(-c3ccc(CN4CCCCC4)o3)ccc12 [GW560116]
Reply: t

====

tested on: PIK4CB; construct: gene PI4KB; conditions: concentration: 1 μM, replicates: in singlicate; n = 1
endpoint_name: %Inh (%)
Give the quantity in %, number only.

Ask: Quote %Inh reported for O=C(Nc1ccc2c(c1)OCO2)NC1CCN(c2ccnc(Nc3ccc(F)cc3)n2)C1 (stereo not shown) please.
Reply: 39

Ask: Quote %Inh reported for Cc1ccc(NC(=O)Nc2cccc(Cl)c2)cc1-c1ccc(C(=O)Nc2ccncc2)cc1 please.
Reply: 0

Ask: Quote %Inh reported for Cl.O=C(Nc1cccc(-c2nn3ncccc3c2-c2ccnc(Nc3cccnc3)n2)c1)c1c(F)cccc1F please.
Reply: 11

Ask: Quote %Inh reported for Cc1cccc(-c2nc(-c3ccc(S(C)(=O)=O)cc3)sc2-c2ccnc(NCCc3ccccc3)c2)c1 please.
Reply: 0

====

test system: ROCK2; conditions: concentration: 1 μM, replicates: in singlicate; n = 1
endpoint_name: %Inh (%)
Give the quantity in %, number only.

Ask: Quote %Inh reported for CC(C)(C)c1ccc(C(=O)Nc2cn3cc(-c4cccnc4)ccc3n2)cc1 please.
Reply: 7

Ask: Quote %Inh reported for CC(C)(C)c1ccc(C(=O)Nc2cn3cc(Cl)ccc3n2)cc1 please.
Reply: 0

Ask: Quote %Inh reported for O=S(=O)(c1ccc(-c2ccnc3[nH]ccc23)cc1)N1CCCC1 please.
Reply: 82

Ask: Quote %Inh reported for Fc1cc(Cl)ccc1Nc1ccnc2cc(-c3ccc(CN4CCCCC4)o3)ccc12 please.
Reply: 24

Ask: Quote %Inh reported for COc1ccccc1-c1ccc2c(NC(=O)C3CC3)n[nH]c2n1 please.
Reply: 6

Ask: Quote %Inh reported for Cn1ccc2ncnc(Oc3cccc(C(=O)Nc4ccccc4)c3)c21 please.
Reply: 16

Ask: Quote %Inh reported for COc1cccc(NC(=O)NC2CCN(c3ccnc(Nc4ccc(F)cc4)n3)C2)c1 (centres unmarked) please.
Reply: 5

Ask: Quote %Inh reported for Clc1cc(Cl)cc(Nc2ccnc(Nc3cc(Cl)cc(Cl)c3)n2)c1 please.
Reply: 0

Ask: Quote %Inh reported for O=C(Nc1ccccc1)Nc1cccc(Oc2ccc3nccn3n2)c1 please.
Reply: 0

Ask: Quote %Inh reported for Cc1cccc(-c2cc(Nc3ccncc3)c3ccccc3n2)n1 please.
Reply: 0

Ask: Quote %Inh reported for O=C(Nc1n[nH]c2nc(-c3nccs3)c(Br)cc12)C1CCCC1 please.
Reply: 0

Ask: Quote %Inh reported for CN1C(=O)C(Nc2ccc(Cl)c(C(=O)O)c2)=C(c2ccc(Cl)cc2)C1=O please.
Reply: 0

Ask: Quote %Inh reported for Cc1ccccc1-n1cnc2c(N)ncnc21 please.
Reply: 0

Ask: Quote %Inh reported for Cc1cccc(-c2nc(C)cc(Nc3ccncc3)n2)n1 please.
Reply: 10

Ask: Quote %Inh reported for Cc1ccc(NC(=O)Nc2cc(C(C)(C)C)nn2-c2ccccc2)cc1 please.
Reply: 0

Ask: Quote %Inh reported for Cl.c1ccc(-c2n[nH]cc2-c2ccnc(-c3ccc(CN4CCOCC4)cc3)c2)nc1 please.
Reply: 0

Ask: Quote %Inh reported for Cc1cc(-c2ccc3c(c2)CC[C@@H](N[C@@H](C)c2ccccc2)C3)cnc1N.Cl please.
Reply: 5

Ask: Quote %Inh reported for CCn1c(-c2cccnc2O)nc2cnccc21 please.
Reply: 0

Ask: Quote %Inh reported for Cc1ccc(C(=O)Nc2ccc(Nc3ccnc4cc(-c5ccccn5)ccc34)cc2O)cc1.Cl please.
Reply: 19

Ask: Quote %Inh reported for Cc1csc(-c2nc(Nc3ccncc3)c3ccccc3n2)n1 please.
Reply: 18

Ask: Quote %Inh reported for COc1ccc(CNC(=O)NC2CCN(c3ccnc(Nc4cc(OC)c(OC)c(OC)c4)n3)C2)cc1 (centres unmarked) please.
Reply: 31

Ask: Quote %Inh reported for CN(C)CCN(C)C(=O)c1cc(-c2ccncc2)c(-c2ccc(Cl)c(O)c2)o1.Cl.Cl please.
Reply: 17

Ask: Quote %Inh reported for CS(=O)(=O)c1ccc(-c2c(-c3ncn[nH]3)sc(N3CCOCC3)c2C#N)cc1 please.
Reply: 15

Ask: Quote %Inh reported for Cl.NC(=O)c1cccc(Nc2nccc(Nc3ccc(Oc4cccc(Cl)c4)c(Cl)c3)n2)c1 please.
Reply: 0

Ask: Quote %Inh reported for COc1ccc(C2=C(Nc3cccc(C(=O)O)c3)C(=O)NC2=O)cc1 please.
Reply: 0

Ask: Quote %Inh reported for COc1cc2ncnc(Nc3ccc4nc(-c5ccccc5)[nH]c4c3)c2cc1OC.Cl please.
Reply: 30

Ask: Quote %Inh reported for Cc1c(Cn2ccn3c(=O)cc(N4CCOCC4)nc23)cccc1C(F)(F)F please.
Reply: 0

Ask: Quote %Inh reported for Cc1ccc(NC(=O)Nc2cccc(Cl)c2)cc1-c1ccc(C(=O)Nc2ccncc2)cc1 please.
Reply: 13

Ask: Quote %Inh reported for Cn1ccc2ncnc(Oc3ccc(NC(=O)Nc4ccccc4)cc3)c21 please.
Reply: 24
